The measurements presented in this section are drawn from paper PMC5540273.

system: FGFR4; conditions: concentration: 1 μM,replicates: in singlicate; n = 1;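 note: KINOMEscan kinase panel screen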
Reported %Inh values for the following molecules.
property-name: %Inh (%)

molecule	unit-tag	result
COc1cc(Nc2nccc(N3CCC(NC(=O)c4cccc(C#N)c4)C3)n2)cc(OC)c1OC (stereo not drawn)	%	7
O=C(NOCC1CC1)c1cc(Br)c(F)c(F)c1Nc1ccc(I)cc1Cl	%	0
C[C@@H]1CNc2c(sc3ccc4nc(-c5ccc(O)cc5)ccc4c23)C(=O)N1	%	31

---

test system: BMPR1B; settings: concentration: 1 μM,replicates: in singlicate; n = 1
Reported %Inh values for the following compounds.

compound	assayed-system	%Inh, %
C[C@@H](Oc1cc(-n2cnc3ccc(-c4ccncc4)cc32)sc1C(N)=O)c1ccccc1Cl	BMPR1B	0
O=C1NCCc2[nH]c(-c3ccncc3)cc21	BMPR1B	92.9
CCN1CCN(CCCC(=O)Nc2n[nH]c3nc(-c4ccc(O)cc4)c(Br)cc23)CC1	BMPR1B	15
Cc1ccc(C(=O)Nc2ccc(Oc3ccc4nc(NC(=O)C5CC5)cn4c3)c(F)c2)c(=O)n1-c1ccccc1	BMPR1B	0
N#Cc1cccc(C(=O)NC2CCN(c3ccnc(Nc4ccc(F)cc4)n3)C2)c1 (stereo not drawn)	BMPR1B	0
COc1cc2ncn(-c3cc(OCC4CCCCC4)c(C(N)=O)s3)c2cc1OC	BMPR1B	0
Cl.c1ccc(Oc2ccc(Nc3ccnc4cc(-c5ccc(CN6CCNCC6)o5)ccc34)cc2)nc1	BMPR1B	0
NC(=O)c1ccc(-c2cc3ncnc(SCC(=O)O)c3s2)cc1	BMPR1B	1
COc1cccc(OC)c1C(=O)Nc1cccc(-c2nn3ccccc3c2-c2ccnc(Nc3cccc(F)c3)n2)c1	BMPR1B	21
O=C(NOCC1CC1)c1cc(Br)c(F)c(F)c1Nc1ccc(I)cc1Cl	BMPR1B	0
O=C(Nc1cccc(C(F)(F)F)c1)c1cccc(Oc2ccc3nccn3n2)c1	BMPR1B	12
COc1cc2nccc(Nc3ccc(Oc4ccccc4)cc3)c2cc1OC.Cl	BMPR1B	0
Cn1cc(-c2cccc3c(N)c(C(N)=O)nnc23)cn1	BMPR1B	21
Cc1ccn2nc(-c3ccc(F)cc3)c(-c3ccncc3)c2c1.Cl	BMPR1B	0
CN(c1ccc2c(c1)nc(NCc1ccc(F)cc1)n2C)c1ccnc(Nc2ccc(CS(C)(=O)=O)cc2)n1.Cl	BMPR1B	0
OCCn1cc(-c2cnc3nnn(Cc4ccc5ncccc5c4)c3n2)cn1	BMPR1B	0
Cn1ccc2ncnc(Oc3ccc(NC(=O)Nc4cnn(C(C)(C)C)c4)c(Cl)c3)c21	BMPR1B	6
CCn1c(-c2nonc2N)nc2cncc(CNC3CCNCC3)c21.Cl	BMPR1B	0

---

Reported %Inh values for the following compounds.
system: MEK2; construct: gene MAP2K2; settings: concentration: 1 μM,replicates: in singlicate; n = 1

structure	%Inh, %
Cc1ccn2nc(-c3ccc(F)cc3)c(-c3ccncc3)c2c1.Cl	48
C[C@@H](Oc1cc(-n2cnc3cc(-c4cnn(C)c4)ccc32)sc1C(N)=O)c1ccccc1Cl	0
O=C(Nc1cccc(Oc2ccc3nccn3n2)c1)Nc1cccc(C(F)(F)F)c1	7
CC(C)c1nc(-c2cccc(NS(=O)(=O)c3ccccc3)c2)c(-c2ccnc(Nc3ccc4c(c3)CN(C)CC4)n2)s1	77

---

system: OSR1; construct: gene OXSR1; details: concentration: 1 μM,replicates: in singlicate; n = 1
Class 1.0: %Inh at least 10%. Class 0.0: %Inh below 10%.

molecule	label-value
CSc1nccc(-c2c(-c3ccc(F)cc3)ncn2CCCN2CCOCC2)n1.Cl	0.0
COc1cccc(C2=C(Nc3cccc(Cl)c3)C(=O)NC2=O)c1	1.0
CC(=O)Nc1ccc(-c2cc3ncnc(SCC(=O)O)c3s2)cc1	0.0
COc1cc(Nc2nccc(N3CCC(NC(=O)c4cccc(C#N)c4)C3)n2)cc(OC)c1OC (stereo not drawn)	0.0
O=C(Nc1ccc(Oc2ccc3nc(NC(=O)C4CC4)cn3n2)c(F)c1)c1cccn(-c2ccccc2)c1=O	0.0
CN1CCN(CCCNc2nccc(-c3c(-c4ccc(F)cc4)nn4cc(C(N)=O)ccc34)n2)CC1	1.0
Cc1ccn2nc(-c3ccc(F)cc3)c(-c3ccncc3)c2c1.Cl	0.0
Cc1nnc(-c2ccc3occ(-c4ccc(S(C)=O)cc4)c3n2)o1 (stereo not drawn)	0.0
O=C(NCC1CC1)c1ccc(-c2cc(C(=O)NC3CC3)ccc2F)cc1	0.0
Cn1ccc2ncnc(Oc3ccc(NC(=O)Nc4cnn(C(C)(C)C)c4)c(Cl)c3)c21	0.0
COc1ccc(Nc2nccc(N3CCC(NC(=O)c4cccc(C#N)c4)C3)n2)cc1 (stereo not drawn)	0.0
CS(=O)c1ccc(-c2coc3ccc(-c4n[nH]c(=O)o4)cc23)cc1 (stereo not drawn)	1.0
Cn1cc(-c2cccc3c(N)c(C(N)=O)nnc23)cn1	1.0
O=C(Nc1cccc(Oc2ccc3nccn3n2)c1)Nc1cccc(C(F)(F)F)c1	0.0
COc1cc2c(Nc3ccc(NC(=O)c4ccccc4)cc3)ncnc2cc1OCCCN1CCOCC1	1.0
O=c1[nH]cc(-c2ccc(O)cc2)c2sc(-c3ccncc3)cc12	0.0
Cn1ccc2ncnc(Oc3ccc(NC(=O)Nc4cc(C(C)(C)C)on4)c(Cl)c3)c21	1.0
